biological target: Neuronal acetylcholine receptor; alpha4/beta2 (Homo sapiens, UniProt P17787+P43681); assay: Displacement of [3H]epibatidine from alpha4beta2 nicotinic receptor expressed in human HEK293 cells; type: cell-based; details: read-out: Ki
Sequence (P17787 whole entry): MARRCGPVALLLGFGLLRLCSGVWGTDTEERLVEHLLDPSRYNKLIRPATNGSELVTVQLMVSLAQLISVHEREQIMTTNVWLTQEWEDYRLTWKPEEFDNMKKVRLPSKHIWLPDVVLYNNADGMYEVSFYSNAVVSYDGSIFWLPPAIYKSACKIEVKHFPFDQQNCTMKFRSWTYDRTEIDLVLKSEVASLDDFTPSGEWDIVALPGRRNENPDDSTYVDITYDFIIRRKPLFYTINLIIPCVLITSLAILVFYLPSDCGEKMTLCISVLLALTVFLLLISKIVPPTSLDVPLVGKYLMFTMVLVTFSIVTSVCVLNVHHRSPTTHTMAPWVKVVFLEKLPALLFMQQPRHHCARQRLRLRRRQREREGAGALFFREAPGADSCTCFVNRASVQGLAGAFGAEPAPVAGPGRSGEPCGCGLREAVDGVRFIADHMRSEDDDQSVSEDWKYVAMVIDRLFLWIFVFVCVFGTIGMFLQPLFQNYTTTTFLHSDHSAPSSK
Sequence (P43681 whole entry): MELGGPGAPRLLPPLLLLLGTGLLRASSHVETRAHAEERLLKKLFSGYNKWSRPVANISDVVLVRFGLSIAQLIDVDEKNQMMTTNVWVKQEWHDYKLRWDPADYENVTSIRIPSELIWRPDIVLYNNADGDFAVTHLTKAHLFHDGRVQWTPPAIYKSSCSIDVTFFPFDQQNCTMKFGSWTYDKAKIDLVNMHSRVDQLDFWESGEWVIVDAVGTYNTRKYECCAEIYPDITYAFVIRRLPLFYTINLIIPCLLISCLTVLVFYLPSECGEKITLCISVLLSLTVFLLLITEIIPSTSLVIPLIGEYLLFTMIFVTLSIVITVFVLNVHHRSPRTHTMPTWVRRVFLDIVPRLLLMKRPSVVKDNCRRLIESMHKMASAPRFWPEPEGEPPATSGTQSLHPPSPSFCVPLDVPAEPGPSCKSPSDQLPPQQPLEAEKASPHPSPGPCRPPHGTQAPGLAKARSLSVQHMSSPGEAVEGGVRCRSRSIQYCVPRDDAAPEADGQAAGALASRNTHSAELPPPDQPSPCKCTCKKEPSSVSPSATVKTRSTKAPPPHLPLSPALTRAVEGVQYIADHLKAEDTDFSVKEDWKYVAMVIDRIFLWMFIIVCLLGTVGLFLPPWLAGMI
pKi: −log10 of the molar value.
Result type: pKi

Answered examples (5):
# Molecule, Result type, Test value
rows = [
    ("Cl.c1cncc(-c2ccccc2O[C@H]2C[C@@H]3CNC[C@H]2C3)c1", "pKi", "< 6.08"),
    ("Cl.Oc1ccncc1-c1ccccc1O[C@H]1C[C@@H]2CNC[C@H]1C2 (racemic)", "pKi", "< 6.38"),
    ("CS(=O)(=O)Nc1ccncc1-c1ccccc1O[C@H]1C[C@@H]2CNC[C@H]1C2.Cl (racemic)", "pKi", 6.60),
    ("Cl.Fc1cncc(-c2ccccc2O[C@H]2C[C@@H]3CNC[C@H]2C3)c1 (racemic)", "pKi", "< 5.82"),
    ("Cl.Oc1cncc(-c2ccccc2O[C@H]2C[C@@H]3CNC[C@H]2C3)c1", "pKi", 6.60),
]

// for each molecule below, give its pKi
1. CS(=O)(=O)Nc1cncc(-c2ccccc2O[C@H]2C[C@@H]3CNC[C@H]2C3)c1.Cl
2. Cl.NC(=O)c1cncc(-c2ccccc2O[C@H]2C[C@@H]3CNC[C@H]2C3)c1 (stereo in doubt)
3. c1cncc(-c2ccccc2O[C@@H]2C[C@H]3CNC[C@@H]2C3)c1
4. Cl.c1cncc(-c2ccccc2O[C@H]2C[C@@H]3CNC[C@H]2C3)c1 (racemic)
5. Cl.Oc1cncc(-c2ccccc2O[C@H]2C[C@@H]3CNC[C@H]2C3)c1 (racemic)

(A)
1: 6.47; 2: < 6.02; 3: < 6.21; 4: < 5.88; 5: 6.59

// for each molecule below, give its pKi
1. Cl.Nc1cncc(-c2ccccc2O[C@H]2C[C@@H]3CNC[C@H]2C3)c1 (racemic)
2. Cl.Nc1ccncc1-c1ccccc1O[C@H]1C[C@@H]2CNC[C@H]1C2 (racemic)
3. COc1cncc(-c2ccccc2O[C@H]2C[C@@H]3CNC[C@H]2C3)c1.Cl (racemic)
4. CC(C)S(=O)(=O)Nc1cncc(-c2ccccc2O[C@H]2C[C@@H]3CNC[C@H]2C3)c1.Cl (racemic)
5. CCS(=O)(=O)Nc1cncc(-c2ccccc2O[C@H]2C[C@@H]3CNC[C@H]2C3)c1.Cl (racemic)
6. CS(=O)(=O)Nc1cncc(-c2ccccc2O[C@H]2C[C@@H]3CNC[C@H]2C3)c1.Cl (racemic)

(A)
["< 6.24", "< 5.98", "< 6.51", 6.13, "< 6.22", "< 6.37"]

###

Please respond with reported Ki for every item in the list.
target: Acetylcholine receptor; alpha1/beta1/delta/gamma (Homo sapiens, UniProt P02708+P07510+P11230+Q07001); experiment: Binding affinity to alpha-1-beta-gamma-delta nicotinic receptor
Sequence (P02708 whole entry): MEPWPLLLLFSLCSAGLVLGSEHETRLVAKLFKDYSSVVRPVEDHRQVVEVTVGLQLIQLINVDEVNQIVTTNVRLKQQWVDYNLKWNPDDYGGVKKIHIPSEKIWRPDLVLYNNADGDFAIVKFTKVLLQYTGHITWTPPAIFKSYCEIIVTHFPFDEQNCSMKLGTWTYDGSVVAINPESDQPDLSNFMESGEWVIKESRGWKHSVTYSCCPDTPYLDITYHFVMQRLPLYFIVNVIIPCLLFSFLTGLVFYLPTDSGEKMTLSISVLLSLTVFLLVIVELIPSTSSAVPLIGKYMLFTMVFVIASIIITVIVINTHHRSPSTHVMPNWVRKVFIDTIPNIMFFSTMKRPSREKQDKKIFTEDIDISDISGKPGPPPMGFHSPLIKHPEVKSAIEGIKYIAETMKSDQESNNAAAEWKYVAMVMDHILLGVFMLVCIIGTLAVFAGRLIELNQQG
Sequence (P07510 whole entry): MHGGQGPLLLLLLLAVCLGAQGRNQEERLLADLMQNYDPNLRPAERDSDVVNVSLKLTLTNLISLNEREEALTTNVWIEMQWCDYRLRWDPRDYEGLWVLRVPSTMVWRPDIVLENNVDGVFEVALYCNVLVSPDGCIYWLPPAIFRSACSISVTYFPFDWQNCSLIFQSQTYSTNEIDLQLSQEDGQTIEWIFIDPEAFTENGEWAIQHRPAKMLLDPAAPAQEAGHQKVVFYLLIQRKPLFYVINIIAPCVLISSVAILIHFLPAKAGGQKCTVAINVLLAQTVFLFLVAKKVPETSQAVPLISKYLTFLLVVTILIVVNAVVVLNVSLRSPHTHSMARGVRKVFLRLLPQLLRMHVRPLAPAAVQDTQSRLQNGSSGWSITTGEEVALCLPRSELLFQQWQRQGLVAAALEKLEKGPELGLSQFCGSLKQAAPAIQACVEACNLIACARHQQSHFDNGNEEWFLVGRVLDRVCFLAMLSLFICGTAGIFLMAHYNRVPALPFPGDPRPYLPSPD
Sequence (P11230 whole entry): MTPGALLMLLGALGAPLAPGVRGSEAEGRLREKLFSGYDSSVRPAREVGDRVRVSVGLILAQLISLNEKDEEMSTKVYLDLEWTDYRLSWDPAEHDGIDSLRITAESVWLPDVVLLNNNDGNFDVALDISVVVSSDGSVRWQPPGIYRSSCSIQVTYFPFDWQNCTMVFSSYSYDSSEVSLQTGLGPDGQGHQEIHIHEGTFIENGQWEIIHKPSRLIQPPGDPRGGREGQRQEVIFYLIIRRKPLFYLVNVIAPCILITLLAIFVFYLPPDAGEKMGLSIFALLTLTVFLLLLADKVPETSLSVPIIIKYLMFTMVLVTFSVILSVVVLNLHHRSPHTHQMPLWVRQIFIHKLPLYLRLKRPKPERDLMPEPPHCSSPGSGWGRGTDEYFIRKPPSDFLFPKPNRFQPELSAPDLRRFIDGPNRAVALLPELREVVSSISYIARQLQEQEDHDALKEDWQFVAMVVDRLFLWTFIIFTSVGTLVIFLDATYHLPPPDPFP
Sequence (Q07001 whole entry): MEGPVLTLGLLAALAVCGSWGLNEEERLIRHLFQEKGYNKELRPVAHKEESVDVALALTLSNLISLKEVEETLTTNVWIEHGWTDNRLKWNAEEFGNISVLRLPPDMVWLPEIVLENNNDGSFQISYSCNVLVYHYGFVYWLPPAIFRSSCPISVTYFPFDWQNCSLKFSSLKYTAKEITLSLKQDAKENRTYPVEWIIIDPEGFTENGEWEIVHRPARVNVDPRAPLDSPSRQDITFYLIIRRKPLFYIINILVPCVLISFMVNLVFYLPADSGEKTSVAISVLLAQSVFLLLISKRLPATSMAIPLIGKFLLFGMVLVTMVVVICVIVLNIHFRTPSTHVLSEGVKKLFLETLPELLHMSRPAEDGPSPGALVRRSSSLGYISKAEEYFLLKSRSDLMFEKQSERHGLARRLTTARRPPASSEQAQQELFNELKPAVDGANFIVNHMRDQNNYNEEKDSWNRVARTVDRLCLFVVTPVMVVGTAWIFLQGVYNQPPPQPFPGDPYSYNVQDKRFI

# Compound, Test value
data = [
    ("Cl.Oc1ccncc1-c1ccccc1O[C@H]1C[C@@H]2CNC[C@H]1C2 (racemic)", "> 15.3 µM"),
    ("CS(=O)(=O)Nc1cncc(-c2ccccc2O[C@@H]2C[C@H]3CNC[C@@H]2C3)c1.Cl", "> 15 µM"),
]

Next compound, Ki to be filled in.
(Q) Returns the measured Ki for the input compound. Input: CS(=O)(=O)Nc1cncc(-c2ccccc2O[C@H]2C[C@@H]3CNC[C@H]2C3)c1.Cl (racemic)
(A) > 13.5 µM
